Source: patent US20250302815A1

target: PTPN2 (HiBIT-PTPN2 in 293T.109 cells) (Homo sapiens, UniProt P17706); construct: expressed in transfected cells; host or cells: 293T.109 (293T WT from ATCC); assay: HiBiT Degradation 293T.109 PTPN2 (Nano-Glo HiBiT Lytic Assay); format: cell-based; settings: 24.0 hours
Sequence (P17706 whole entry, species assumed): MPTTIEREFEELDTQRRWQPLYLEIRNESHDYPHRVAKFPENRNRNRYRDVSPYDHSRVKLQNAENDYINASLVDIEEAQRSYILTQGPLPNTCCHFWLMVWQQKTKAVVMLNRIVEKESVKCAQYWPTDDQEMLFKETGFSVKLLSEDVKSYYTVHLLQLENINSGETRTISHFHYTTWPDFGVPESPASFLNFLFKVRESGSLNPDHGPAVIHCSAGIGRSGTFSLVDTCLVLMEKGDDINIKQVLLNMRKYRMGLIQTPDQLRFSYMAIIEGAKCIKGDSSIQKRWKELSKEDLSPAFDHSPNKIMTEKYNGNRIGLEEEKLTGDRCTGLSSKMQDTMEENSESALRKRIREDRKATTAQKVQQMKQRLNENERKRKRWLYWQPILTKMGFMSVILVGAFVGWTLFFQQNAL
Examples of compounds with documented DC50 follow.

>>> value_measured("CC1(C)C[C@@H](Nc2cccc(-c3sc(C(=O)O)c(OCC(=O)O)c3Cl)c2)CCN1S(=O)(=O)Cc1cccc(NC(=O)COC2CCN(C(=O)CNc3cccc4c3CN(C3CCC(=O)NC3=O)C4=O)CC2)c1 (stereo partly drawn)")
"< 50 nM"
>>> value_measured("O=C(O)COc1c(C(=O)O)sc(-c2cccc(NC3CCN(S(=O)(=O)Cc4cccc(NC(=O)CN5CCC(n6nc(C7CCC(=O)NC7=O)c7ccccc76)CC5)c4)CC3)c2)c1Cl (stereo not drawn)")
"≥ 1000 nM"
>>> value_measured("Cn1c(=O)n(C2CCC(=O)NC2=O)c2ccc(CC3CCN(C(=O)Nc4cccc(CS(=O)(=O)N5CC[C@H](Nc6cccc(-c7sc(C(=O)O)c(OCC(=O)O)c7Cl)c6)CC5(C)C)c4)CC3)cc21 (stereo partly drawn)")
"50 to 200 nM"
>>> value_measured("Cn1c(=O)n(C2CCC(=O)NC2=O)c2ccc(NC3CCN(C(=O)Nc4cccc(CS(=O)(=O)N5CC[C@H](Nc6cccc(-c7sc(C(=O)O)c(OCC(=O)O)c7Cl)c6)CC5(C)C)c4)CC3)cc21 (stereo partly drawn)")
"50 to 200 nM"

Value of DC50 reported for the compound Cn1c(=O)n(C2CCC(=O)NC2=O)c2ccc(N3CCC(CCNC(=O)Nc4cccc(CS(=O)(=O)N5CC[C@H](Nc6cccc(-c7sc(C(=O)O)c(OCC(=O)O)c7Cl)c6)CC5(C)C)c4)CC3)cc21 (stereo partly drawn) is < 50 nM

Field DC50 (entry Cn1c(=O)n(C2CCC(=O)NC2=O)c2ccc(C3CCN(C(=O)Nc4cccc(CS(=O)(=O)N5CC[C@H](Nc6cc(-c7sc(C(=O)O)c(OCC(=O)O)c7Cl)ccc6F)CC5(C)C)c4)CC3)cc21 (stereo partly drawn) ) reads 200 to 1000 nM

Reported DC50 of CC1(C)C[C@@H](Nc2cccc(-c3sc(C(=O)O)c(OCC(=O)O)c3Cl)c2)CCN1S(=O)(=O)Cc1cccc(NC(=O)NCCCc2ccc3c4c(cccc24)C(=O)N3C2CCC(=O)NC2=O)c1 (stereo partly drawn) : < 50 nM

Recorded result, Cc1cc2cc(C3CCN(C(=O)Nc4cccc(CS(=O)(=O)N5CC[C@H](Nc6cccc(-c7sc(C(=O)O)c(OCC(=O)O)c7Cl)c6)CC5(C)C)c4)CC3)ccc2n1C1CCC(=O)NC1=O (stereo partly drawn) , DC50: 200 to 1000 nM

The compound listed as CC1(C)C[C@@H](Nc2cccc(-c3sc(C(=O)O)c(OCC(=O)O)c3Cl)c2)CCN1S(=O)(=O)Cc1ccc(F)c(NC(=O)[C@H]2[C@@H]3CN(C(=O)CNc4cccc5c4CN(C4CCC(=O)NC4=O)C5=O)C[C@@H]32)c1 (stereo partly drawn) has a reported DC50 of 50 to 200 nM

----------
target: PTPN2 (HiBIT-PTPN2 in 293T.109 cells) (Homo sapiens); construct: expressed in transfected cells; host or cells: 293T.109 (293T WT from ATCC); assay: HiBiT Degradation 293T.109 PTPN2 (Nano-Glo HiBiT Lytic Assay); assay type: cell-based; settings: 24.0 hours
The following molecules are listed with their measured DC50 values.

>>> value_measured("Cn1c(=O)n(C2CCC(=O)NC2=O)c2ccc(C3CCN(C(=O)Nc4cccc(CS(=O)(=O)N5CC[C@@H](Nc6cccc(-c7sc(C(=O)O)c(OCC(=O)O)c7Cl)c6F)CC5(C)C)c4)CC3)cc21 (stereo partly shown) [Example 135]")
"50 to 200 nM"
>>> value_measured("Cn1c(=O)n([C@H]2CCC(=O)NC2=O)c2ccc(C3CCN(C(=O)Nc4cccc(CS(=O)(=O)N5CC[C@H](Nc6cccc(-c7sc(C(=O)O)c(OCC(=O)O)c7Cl)c6)CC5(C)C)c4)CC3)cc21 (single isomer, unassigned) [Example 234]")
"< 50 nM"
>>> value_measured("Cn1c(=O)n(C2CCC(=O)NC2=O)c2ccc(C3CCN(C(=O)Nc4cccc(CS(=O)(=O)N5CC[C@H](Nc6cccc(-c7sc(C(=O)O)c(OCC(=O)O)c7Cl)c6)CC5(C)C)c4)CC3)c(Cl)c21 (stereo partly shown) [Example 207]")
"50 to 200 nM"

// next item, DC50 requested
// Cn1c(=O)n(C2CCC(=O)NC2=O)c2ccc(C3CCN(C(=O)Nc4cc(CS(=O)(=O)N5CCC(Nc6cccc(-c7sc(C(=O)O)c(OCC(=O)O)c7Cl)c6)CC5)ccc4F)CC3)cc21 (stereo not shown) [Example 104] : DC50 value = 50 to 200 nM
